method_notes: recombinant UMI read abundance after kanamycin selection (control-corrected) (log10(CPM+1)); higher = more efficient recombination; extreme values may be limits of the assay; sequences stand for … in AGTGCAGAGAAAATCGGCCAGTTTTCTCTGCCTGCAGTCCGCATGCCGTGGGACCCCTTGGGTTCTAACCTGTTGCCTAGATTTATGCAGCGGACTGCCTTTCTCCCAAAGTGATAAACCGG…AGGTTGGTTTCACT; site = the 11-nt donor;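 note: IS621 bridge recombinase in Escherichia coli cells against a fixed T5 target plasmid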
Threshold check on recombinant UMI read abundance (log10): at or above 0.01 gives 1.0, strictly below gives 0.0.

Prompt: Threshold query (recombinant UMI read abundance (log10) >= 0.01) on TCCCATTCATGGACCGGTTTTCCCGGTAATCCGTATTTGCC (site TCCGATTCTGG)
Completion: 0.0

Prompt: Tell me whether recombinant UMI read abundance (log10) is at least 0.01 here: CGTTTGGCATGGACCGGTTTTCCCGGTAATCCGTATTTGGT (site CGTTTGGCTAA)
Completion: 1.0

Prompt: Evaluate CACGGACCATGGACCGGTTTTCCCGGTAATCCGTATTTGTT (site CACGGCCCTAA) : recombinant UMI read abundance (log10) at minimum 0.01?
Completion: 1.0

Prompt: # bool: recombinant UMI read abundance (log10) of TCAGTCCCATGGACCGGTTTTCCCGGTAATCCGTATTTGGT (site TCAGTCCCTAC) >= 0.01
Completion: 0.0

Prompt: # check: recombinant UMI read abundance (log10) of TAGCCGTCATGGACCGGTTTTCCCGGTAATCCGTATTTGGT (site TAGCCGTCTAC) is greater than or equal to 0.01
Completion: 1.0

Prompt: Entry CCGTTTACATGGACCGGTTTTCCCGGTAATCCGTATTTGCT (site CAGTTTACTAG) : is its recombinant UMI read abundance (log10) no less than 0.01?
Completion: 0.0

Prompt: # bool: recombinant UMI read abundance (log10) of ATCCAGGCATGGACCGGTTTTCCCGGTAATCCGTATTTGAG (site ATCCAGGCTCT) >= 0.01
Completion: 0.0

Prompt: Please check the record GATTATGCATGGACCGGTTTTCCCGGTAATCCGTATTTGCT (site GATTATCCTAG) and state if its recombinant UMI read abundance (log10) is at or above 0.01.
Completion: 1.0

Prompt: Textbook exercise: given the entry AAATGCTCATGGACCGGTTTTCCCGGTAATCCGTATTTGAA (site AAATGCTCTTT) , state whether its recombinant UMI read abundance (log10) is greater than or equal to 0.01.
Completion: 1.0

Prompt: Hello, I need to know if CACTACTCATGGACCGGTTTTCCCGGTAATCCGTATTTGCC (site CACTGCTCTGG) has measured recombinant UMI read abundance (log10) not below 0.01. Thanks!
Completion: 1.0

Prompt: Is reported recombinant UMI read abundance (log10) greater than or equal to 0.01 here: TAGCGAGCATGGACCGGTTTTCCCGGTAATCCGTATTTGAA (site TAGCTAGCTTT)
Completion: 0.0

Prompt: Please indicate if the recorded recombinant UMI read abundance (log10) for TAGTTAGCATGGACCGGTTTTCCCGGTAATCCGTATTTGAA (site TAGTTAGCTTT) meets or exceeds 0.01.
Completion: 1.0

Prompt: Would you say CTTGCATCATGGACCGGTTTTCCCGGTAATCCGTATTTGAT (site CTTGCATCTAT) shows recombinant UMI read abundance (log10) at minimum 0.01?
Completion: 1.0

Prompt: Determine whether this sequence has recombinant UMI read abundance (log10) no lower than 0.01: CGATGCTCATGGACCGGTTTTCCCGGTAATCCGTATTTGAA (site CTATGCTCTTT)
Completion: 1.0

Prompt: Check this sequence for recombinant UMI read abundance (log10) at or above 0.01: CCCTTCTCATGGACCGGTTTTCCCGGTAATCCGTATTTGGG (site GCCTTCTCTCC)
Completion: 0.0

Prompt: Entry TCCAGCGCATGGACCGGTTTTCCCGGTAATCCGTATTTGCG (site TCCACCGCTCG) : is its recombinant UMI read abundance (log10) no less than 0.01?
Completion: 1.0

Prompt: Has CGAGTATCATGGACCGGTTTTCCCGGTAATCCGTATTTGAC (site CGAGTATCTGT) a recorded recombinant UMI read abundance (log10) greater than or equal to 0.01?
Completion: 1.0

Prompt: Is it the case that ACAGTATCATGGACCGGTTTTCCCGGTAATCCGTATTTGCA (site AGATTATCTTG) has recombinant UMI read abundance (log10) reaching or exceeding 0.01?
Completion: 1.0

Prompt: Evaluate CTTATCTCATGGACCGGTTTTCCCGGTAATCCGTATTTGTA (site CTTCTCTCTTA) : recombinant UMI read abundance (log10) at minimum 0.01?
Completion: 1.0

Prompt: Does the sequence GCGACTGCATGGACCGGTTTTCCCGGTAATCCGTATTTGCC (site GCCACTGCTGG) have recorded recombinant UMI read abundance (log10) that is 0.01 or more?
Completion: 1.0

Prompt: Item AAGTAGGCATGGACCGGTTTTCCCGGTAATCCGTATTTGGC (site AAGTAGGCTGC) with recombinant UMI read abundance (log10) of 0.01 or above?
Completion: 1.0

Prompt: Item TGTTAGGCATGGACCGGTTTTCCCGGTAATCCGTATTTGGT (site TGGTAGGCTAC) with recombinant UMI read abundance (log10) of 0.01 or above?
Completion: 1.0

Prompt: State whether the measured recombinant UMI read abundance (log10) reaches 0.01, counting equality as reaching it, for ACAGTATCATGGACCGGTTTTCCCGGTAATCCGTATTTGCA (site ACAGTAGCTTG)
Completion: 1.0

Prompt: Textbook exercise: given the entry ATGTAGGCATGGACCGGTTTTCCCGGTAATCCGTATTTGGT (site ATGTAGGCTCC) , state whether its recombinant UMI read abundance (log10) is greater than or equal to 0.01.
Completion: 1.0

Prompt: Textbook exercise: given the entry ACATACTCATGGACCGGTTTTCCCGGTAATCCGTATTTGCA (site ACATACTCTTG) , state whether its recombinant UMI read abundance (log10) is greater than or equal to 0.01.
Completion: 1.0

Prompt: State whether the measured recombinant UMI read abundance (log10) reaches 0.01, counting equality as reaching it, for TAGCTACCATGGACCGGTTTTCCCGGTAATCCGTATTTGAA (site TAGCTACCTTT)
Completion: 0.0

Prompt: Identify whether the reported recombinant UMI read abundance (log10) of the following sequence is 0.01 or greater: CGGCTGGCATGGACCGGTTTTCCCGGTAATCCGTATTTGGT (site CGGCTGGCTAC)
Completion: 1.0

Prompt: Hi team, for AGCCCCGCATGGACCGGTTTTCCCGGTAATCCGTATTTGTT (site AGCCCCGCTAA) , is the recorded recombinant UMI read abundance (log10) at or above 0.01?
Completion: 1.0

Prompt: For this sequence, is measured recombinant UMI read abundance (log10) 0.01 or higher? GATTGCACATGGACCGGTTTTCCCGGTAATCCGTATTTGAC (site GATTGTACTGT)
Completion: 0.0

Prompt: Given CAGGAGTCATGGACCGGTTTTCCCGGTAATCCGTATTTGCC (site CCGGAGTCTGG) , state whether its recombinant UMI read abundance (log10) is at least 0.01.
Completion: 0.0

Prompt: Quick check, recombinant UMI read abundance (log10) >= 0.01? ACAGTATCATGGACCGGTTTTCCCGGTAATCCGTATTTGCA (site ACATTATCTGG)
Completion: 0.0

Prompt: Reported recombinant UMI read abundance (log10) reaches at least 0.01 for CAGTGCTCATGGACCGGTTTTCCCGGTAATCCGTATTTGGT (site CAGTGCTCTAC) ?
Completion: 1.0

Prompt: Form field: recombinant UMI read abundance (log10) at least 0.01? Entry: AGTCCCACATGGACCGGTTTTCCCGGTAATCCGTATTTGGA (site AGTCCCACTTC)
Completion: 1.0

Prompt: Is it the case that GATTGCCCATGGACCGGTTTTCCCGGTAATCCGTATTTGAT (site GCTTGCCCTAT) has recombinant UMI read abundance (log10) reaching or exceeding 0.01?
Completion: 1.0

Origin of values: the supplement of paper PMC11208160
